# EXPERIMENTAL TARGET: kappa opioid receptor (Homo sapiens)
# Sequence (P41145 whole entry): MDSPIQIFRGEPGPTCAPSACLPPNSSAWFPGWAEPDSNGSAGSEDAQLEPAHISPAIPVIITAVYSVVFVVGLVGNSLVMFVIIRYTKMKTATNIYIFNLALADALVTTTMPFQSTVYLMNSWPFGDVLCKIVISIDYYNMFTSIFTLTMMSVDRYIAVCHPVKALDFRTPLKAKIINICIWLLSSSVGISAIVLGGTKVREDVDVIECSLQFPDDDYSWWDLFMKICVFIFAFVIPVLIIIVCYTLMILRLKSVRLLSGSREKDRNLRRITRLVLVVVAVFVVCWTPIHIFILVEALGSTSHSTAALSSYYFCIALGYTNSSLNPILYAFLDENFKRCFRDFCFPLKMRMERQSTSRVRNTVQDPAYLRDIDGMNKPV
# MEASUREMENT NOTES: Filtration binding assay: kappa opioid receptor
pIC50: −log10 of the molar value.
METRIC: pIC50

INSERT INTO assay_data (compound, metric, operator, experimental_value) VALUES
  ('O=C1N(C[C@@H](O)CN(Cc2ccccc2)C[C@@H]2CCC[C@@H]2O)CN(c2ccc(F)cc2)C12CCN(CC1CCCCCCC1)CC2', 'pIC50', '=', 6.72),
  ('COc1ccc(CCNC[C@H](O)CN2CN(c3ccc(F)cc3)C3(CCN(Cc4cccc5cccc(C)c45)CC3)C2=O)cc1OC', 'pIC50', '=', 5.43),
  ('COc1ccc(CCN(C)C[C@@H](O)CN2CN(c3ccc(F)cc3)C3(CCN(Cc4cccc5cccc(C)c45)CC3)C2=O)cc1OC', 'pIC50', '=', 5.66),
  ('O=C1N(C[C@@H](O)CN(Cc2ccccc2)C[C@@H]2CCCCC[C@@H]2O)CN(c2ccc(F)cc2)C12CCN(CC1CCCCCCC1)CC2', 'pIC50', '=', 6.24),
  ('O=C1N(C[C@@H](O)CNc2ccc(-c3ccccc3)cc2)CN(c2ccc(F)cc2)C12CCN(CC1CCCCCCC1)CC2', 'pIC50', '=', 5.85),
  ('O=C1N(C[C@@H](O)CNCc2ccccc2Br)CN(c2ccc(F)cc2)C12CCN(CC1CCCCCCC1)CC2', 'pIC50', '=', 6.80),
  ('CCCCNC[C@H](O)CN1CN(c2ccc(F)cc2)C2(CCN(CC3CCCCCCC3)CC2)C1=O', 'pIC50', '=', 6.92),
  ('CC(c1ccccc1)N(Cc1ccccc1)C[C@H](O)CN1CN(c2ccc(F)cc2)C2(CCN(Cc3cc(C(F)(F)F)cc(C(F)(F)F)c3)CC2)C1=O (some centres unmarked)', 'pIC50', '≤', 5.00),
  ('COc1cc(CNC[C@H](O)CN2CN(c3ccc(F)cc3)C3(CCN(CC4CCCCCCC4)CC3)C2=O)cc(OC)c1OC', 'pIC50', '=', 6.49),
  ('CC(C)(C)OC(=O)N1CCN(C[C@H](O)CN2CN(c3ccc(F)cc3)C3(CCN(CC4CCCCCCC4)CC3)C2=O)CC1', 'pIC50', '=', 6.60),
  ('CCN(Cc1ccc(C)cc1)C[C@H](O)CN1CN(c2ccc(F)cc2)C2(CCN(Cc3cccc4ccccc34)CC2)C1=O', 'pIC50', '=', 5.87),
  ('O=C1N(C[C@@H](O)CNCCc2ccc3c(c2)OCO3)CN(c2ccc(F)cc2)C12CCN(Cc1cccc3ccccc13)CC2', 'pIC50', '=', 6.10),
  ('O=C1N(C[C@@H](O)CNc2ccc(C3CCCCC3)cc2)CN(c2ccc(F)cc2)C12CCN(CC1CCCCCCC1)CC2', 'pIC50', '=', 5.57),
  ('O=C1N(C[C@@H](O)CNCc2ccc(C(F)(F)F)cc2)CN(c2ccc(F)cc2)C12CCN(CC1CCCCCCC1)CC2', 'pIC50', '=', 6.39),
  ('COc1ccc(CCN(C)C[C@H](O)CN2CN(c3ccc(F)cc3)C3(CCN(Cc4c(Cl)cccc4C(F)(F)F)CC3)C2=O)cc1OC', 'pIC50', '=', 5.03),
  ('O=C1N(C[C@@H](O)CNc2ccccc2)CN(c2ccc(F)cc2)C12CCN(Cc1c(Cl)cccc1C(F)(F)F)CC2', 'pIC50', '=', 5.84),
  ('CCCCN(Cc1ccccc1)C[C@H](O)CN1CN(c2ccc(F)cc2)C2(CCN(Cc3c(C)c(C)c(C)c(C)c3C)CC2)C1=O', 'pIC50', '=', 5.97),
  ('Cc1cccc2cccc(CN3CCC4(CC3)C(=O)N(C[C@@H](O)CNCCN3CCOCC3)CN4c3ccc(F)cc3)c12', 'pIC50', '=', 6.09),
  ('O=C1N(C[C@@H](O)CNCCN2CCOCC2)CN(c2ccc(F)cc2)C12CCN(CC1CCCCCCC1)CC2', 'pIC50', '=', 6.89),
  ('COc1cc(CCNC[C@H](O)CN2CN(c3ccc(F)cc3)C3(CCN(Cc4cccc5ccccc45)CC3)C2=O)c([N+](=O)[O-])cc1OC', 'pIC50', '=', 6.21),
  ('O=C1N(C[C@@H](O)CNCCc2cccs2)CN(c2ccc(F)cc2)C12CCN(CC1CCCCCCC1)CC2', 'pIC50', '=', 6.54),
  ('O=C1N(C[C@@H](O)CN2CCN(c3cccc(C(F)(F)F)c3)CC2)CN(c2ccc(F)cc2)C12CCN(Cc1cc(C(F)(F)F)cc(C(F)(F)F)c1)CC2', 'pIC50', '≤', 5.00),
  ('COc1ccc(CNC[C@@H](O)CN2CN(c3ccc(F)cc3)C3(CCN(Cc4cccc5cccc(C)c45)CC3)C2=O)cc1', 'pIC50', '=', 5.86),
  ('COc1ccc(CCN(C)C[C@H](O)CN2CN(c3ccc(F)cc3)C3(CCN(Cc4cc(C(F)(F)F)cc(C(F)(F)F)c4)CC3)C2=O)cc1OC', 'pIC50', '≤', 5.00),
  ('COc1ccc(CCN(C)C[C@H](O)CN2CN(c3ccc(F)cc3)C3(CCN(Cc4cccc5cccc(C)c45)CC3)C2=O)cc1OC', 'pIC50', '=', 6.12),
  ('CC1CN(C[C@H](O)CN2CN(c3ccc(F)cc3)C3(CCN(CC4CCCCCCC4)CC3)C2=O)CC(C)O1 (some centres unmarked)', 'pIC50', '=', 6.52);
